system: MALME-3M melanoma; assay: NCI-60 one-dose screen, 48 h (100 = growth as untreated, 0 = no growth, -100 = all killed); conditions: 10 µM unless noted
About 83,000 compounds went through this panel and 20% of them were active in at least one assay; those are over-represented in the sample as a whole.
growth by entry:
Write the answer as a number in %, unit excluded.

Example cases with answers are listed next.
{"columns": ["molecule", "readout_name", "quantity_unit", "recorded_number"],
 "data": [
  ["COc1ccc(-c2nc3ccc(-c4nnc(SCC(=O)Nc5ccc(C(=O)/C=C/c6ccc(Cl)cc6)cc5)o4)cc3[nH]2)cc1", "growth", "%", 96.1],
  ["CC(C)C[C@@H]1N[C@@]2(C(=O)Nc3ccccc32)[C@@H](c2ccc(F)cc2)[C@@H]1C(=O)c1ccc(O)cc1", "growth", "%", 84.3],
  ["O=C(CSc1nnc(-c2ccc(Cl)cc2)n1-c1ccccc1)Nc1ccc(Br)cc1", "growth", "%", -3.16]
]}

Which growth is reported with MALME-3M melanoma for this entry: O=C(NNc1nc2cc(F)c(F)cc2n2c(CN3CC4CNCC4C3)ccc12)c1ncccn1 (stereo not drawn) ? 10.3

Now this one: COc1cccc2cc(-c3cc4ccccc4[nH]3)/c(=N\NC(=O)c3ccc(Cl)cc3)oc12 61.7

Now this one: COC(=O)/C=C/c1c(C2(C)NC(=O)c3ccccc3N2)c(=O)oc2ccc(Cl)cc12 (stereo not drawn) 88.3
